target: MAP kinase-activated protein kinase 2 (Homo sapiens); further: in the data inactive means no Kd found up to 30 µM
Sequence (P49137 whole entry): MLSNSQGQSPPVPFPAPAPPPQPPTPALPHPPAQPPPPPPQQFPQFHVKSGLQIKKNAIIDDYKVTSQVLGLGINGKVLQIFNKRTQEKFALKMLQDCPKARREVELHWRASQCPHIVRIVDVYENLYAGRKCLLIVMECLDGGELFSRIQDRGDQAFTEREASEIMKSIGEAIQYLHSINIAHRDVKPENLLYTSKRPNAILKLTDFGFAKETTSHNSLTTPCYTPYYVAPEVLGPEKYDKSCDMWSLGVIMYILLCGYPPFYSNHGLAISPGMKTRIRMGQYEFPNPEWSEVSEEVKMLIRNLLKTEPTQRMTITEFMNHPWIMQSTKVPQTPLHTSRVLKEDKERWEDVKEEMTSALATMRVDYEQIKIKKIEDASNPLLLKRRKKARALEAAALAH
Active and inactive are the calls of the source.
Log the outcome using a class from active, inactive

Which outcome did this test record for the compound Cc1ccc(NC(=O)c2ccc(CN3CC[C@H](N(C)C)C3)c(C(F)(F)F)c2)cc1Nc1nccc(-c2cncnc2)n1 ? active

Outcome logged for O=C(c1ccc(F)c(F)c1Nc1ccc(I)cc1F)N1CC(O)([C@@H]2CCCCN2)C1 in this assay: inactive

Can you look up the reported call for COc1cc2nccc(Oc3ccc(NC(=O)NC4CC4)c(Cl)c3)c2cc1C(N)=O for me? active

What did the test return for CN1N=C(N)c2cn([C@@H]3O[C@H](COP(=O)(O)O)[C@@H](O)[C@H]3O)c3ncnc1c23 [TRICIRIBINE PHOSPHATE] ? inactive

Look up the recorded call for COC(=O)[C@@]1(O)C[C@H]2O[C@]1(C)n1c3ccccc3c3c4c(c5c6ccccc6n2c5c31)C(=O)NC4 [K-252A] in this test. inactive

// param item: O=C1NC(=O)/C(=C/c2ccc3nccc(-c4ccncc4)c3c2)S1 ; yields the recorded call inactive

Tell me the recorded outcome of this test for CC[C@H](Nc1ncnc2[nH]cnc12)c1nc2cccc(F)c2c(=O)n1-c1ccccc1 . inactive

Which outcome was assigned to Cc1cc2c(F)c(Oc3ncnn4cc(OC[C@@H](C)OC(=O)[C@H](C)N)c(C)c34)ccc2[nH]1 [BRIVANIB ALANINATE] in this test? inactive

Tell me the assay call for CN1CCC(COc2cnc(-c3cccc(Cn4nc(-c5cccc(C#N)c5)ccc4=O)c3)nc2)CC1 please. inactive

Would you mind telling me which call this test gave CC[C@@H]1C(=O)N(C)c2cnc(Nc3ccc(C(=O)N[C@H]4CC[C@H](N5CCN(CC6CC6)CC5)CC4)cc3OC)nc2N1C(C)C ? inactive

Name the outcome recorded for Cc1ccc(S(=O)(=O)Nc2nc3ccccc3nc2Nc2ccc3nsnc3c2)cc1 in the assay. inactive

Dear all, I need the recorded test outcome for COc1ccc(-c2ccc3c(N4CCOC[C@@H]4C)nc(N4CCOC[C@@H]4C)nc3n2)cc1CO , thank you. inactive

Per the assay record, what outcome was assigned to Cc1ccc(-n2nc(C(C)(C)C)cc2NC(=O)NCc2cc(F)ccc2Oc2ccc3c(cnn3CCO)c2)cc1 ? active

Outcome logged for CNC(=O)CN1CCC(Oc2cc3c(Nc4cccc(Cl)c4F)ncnc3cc2OC)CC1 in this assay: inactive

What is the recorded call for this compound in the test? Cc1c(F)cc(C(=O)NC2CC2)cc1-c1ccc(C(=O)NCC(C)(C)C)cn1 active

Answer briefly: the call reported for C[C@@H](Nc1cc(F)cc(F)c1)c1cc(C(=O)N(C)C)cc2c(=O)cc(N3CCOCC3)oc12 in this assay. inactive

----------
molecular target: Serine/threonine-protein kinase 10 (Homo sapiens, UniProt O94804); further: in the data inactive means no Kd found up to 30 µM
Sequence (O94804 whole entry): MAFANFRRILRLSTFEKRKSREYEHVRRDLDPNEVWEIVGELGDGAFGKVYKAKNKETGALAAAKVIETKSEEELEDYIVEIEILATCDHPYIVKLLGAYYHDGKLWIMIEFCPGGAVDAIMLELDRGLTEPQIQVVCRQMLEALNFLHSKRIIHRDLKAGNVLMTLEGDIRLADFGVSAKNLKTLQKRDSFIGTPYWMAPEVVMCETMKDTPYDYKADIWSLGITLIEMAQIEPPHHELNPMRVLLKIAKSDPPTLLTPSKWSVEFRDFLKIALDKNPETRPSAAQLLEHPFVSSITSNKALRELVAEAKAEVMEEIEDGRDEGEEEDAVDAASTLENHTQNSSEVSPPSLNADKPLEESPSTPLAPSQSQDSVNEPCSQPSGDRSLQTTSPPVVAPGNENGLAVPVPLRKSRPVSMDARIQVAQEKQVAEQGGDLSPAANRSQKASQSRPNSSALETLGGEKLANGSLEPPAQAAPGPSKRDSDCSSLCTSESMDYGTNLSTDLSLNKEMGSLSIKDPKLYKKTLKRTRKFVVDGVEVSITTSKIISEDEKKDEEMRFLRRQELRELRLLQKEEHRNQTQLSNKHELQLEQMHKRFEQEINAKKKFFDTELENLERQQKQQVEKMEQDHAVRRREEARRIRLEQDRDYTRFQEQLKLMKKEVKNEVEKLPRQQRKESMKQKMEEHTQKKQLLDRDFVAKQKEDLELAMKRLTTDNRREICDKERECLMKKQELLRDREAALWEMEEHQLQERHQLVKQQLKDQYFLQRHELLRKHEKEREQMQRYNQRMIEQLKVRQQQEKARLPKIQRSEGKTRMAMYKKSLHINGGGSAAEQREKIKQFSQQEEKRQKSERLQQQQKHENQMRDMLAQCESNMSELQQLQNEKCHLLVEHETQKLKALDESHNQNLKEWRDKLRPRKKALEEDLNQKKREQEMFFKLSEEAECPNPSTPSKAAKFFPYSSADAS
Active and inactive are the calls of the source.
Response enum: active, inactive

# fetch the recorded call for CN1CCC(COc2cnc(-c3cccc(Cn4nc(-c5cccc(C#N)c5)ccc4=O)c3)nc2)CC1 [TEPOTINIB] here inactive

Please state the recorded outcome for this compound: CCCS(=O)(=O)Nc1ccc(F)c(C(=O)c2c[nH]c3ncc(-c4ccc(Cl)cc4)cc23)c1F [VEMURAFENIB] inactive

Tell me the recorded outcome of this test for O=C(O)[C@]1(Cc2cccc(Nc3nccs3)n2)CC[C@@H](Oc2cccc(Cl)c2F)CC1 [MK-5108] . active

Per the assay record, what outcome was assigned to CC[C@H](Nc1ncnc2[nH]cnc12)c1nc2cccc(F)c2c(=O)n1-c1ccccc1 [IDELALISIB] ? inactive

----------
# Kd per entry for Myosin-10 (Homo sapiens)
The source made the active and inactive calls.

Kd in this record for Cc1ccc(-n2nc(C(C)(C)C)cc2NC(=O)NCc2cc(F)ccc2Oc2ccc3c(cnn3CCO)c2)cc1 : > 30 µM (inactive)

The measured Kd associated with COc1ccc(-c2ccc3c(N4CCOC[C@@H]4C)nc(N4CCOC[C@@H]4C)nc3n2)cc1CO reads > 30 µM (inactive)

Briefly, Kd measured for CC(=O)Nc1cccc(-n2c(=O)n(C3CC3)c(=O)c3c(Nc4ccc(I)cc4F)n(C)c(=O)c(C)c32)c1 : > 30 µM (inactive)

Entry CN1CCC(CNc2ccc3ncc(-c4cccc(OC(F)(F)F)c4)n3n2)CC1 — recorded Kd = > 30 µM (inactive)

Lab note: measured Kd of Cc1nc(N)sc1-c1ccnc(Nc2ccc(N3CCOCC3)cc2)n1 was > 30 µM (inactive)

Documented Kd of COc1cc(CCc2cc(NC(=O)c3ccc(N4C[C@@H](C)N[C@@H](C)C4)cc3)n[nH]2)cc(OC)c1 : > 30 µM (inactive)

Sure, the documented Kd for CCn1c(=O)c(-c2cc[nH]n2)cc2c(C)nc(N)nc21 is > 30 µM (inactive)

Kd recorded for this compound, CNC(=O)c1ccc(-c2cnc3ncc(Cc4ccc5ncccc5c4)n3n2)cc1F , is > 30 µM (inactive)

The measured Kd associated with CN1CCN(c2ccc3nc(-c4c(N)c5c(F)cccc5[nH]c4=O)[nH]c3c2)CC1 reads > 30 µM (inactive)

Just so you know, measured Kd for CNS(=O)(=O)Nc1nccc(Cc2c(C)c3ccc(Oc4ncccn4)cc3oc2=O)c1F came out at > 30 µM (inactive)

Short answer for O=C1NC(=O)/C(=C/c2ccc3nccc(-c4ccncc4)c3c2)S1 : Kd was > 30 µM (inactive)

The value of Kd measured for the compound N[C@@H]1CCCN(c2c(/C=C3\SC(=O)NC3=O)cccc2-c2ccccc2)C1 turned out to be > 30 µM (inactive)

Sure, the documented Kd for Cc1cc2c(F)c(Oc3ncnn4cc(OC[C@@H](C)OC(=O)[C@H](C)N)c(C)c34)ccc2[nH]1 [BRIVANIB ALANINATE] is > 30 µM (inactive)

Kd in this record for CNC(=O)c1cc(Oc2ccc(NC(=O)Nc3ccc(Cl)c(C(F)(F)F)c3)c(F)c2)ccn1 : > 30 µM (inactive)

The value of Kd measured for the compound Cc1ccc(S(=O)(=O)Nc2nc3ccccc3nc2Nc2ccc3nsnc3c2)cc1 turned out to be > 30 µM (inactive)

// field: Kd; key: COCCNCc1ccc(-c2cc3nccc(Oc4ccc(NC(=S)NC(=O)Cc5ccc(F)cc5)cc4F)c3s2)nc1 ; value = > 30 µM (inactive)

# compound Cc1cc(Nc2cc(N3CCN(C)CC3)nc(/C=C/c3ccccc3)n2)n[nH]1 ; its Kd = > 30 µM (inactive)

Recorded Kd (compound CCCS(=O)(=O)Nc1ccc(F)c(C(=O)c2c[nH]c3ncc(-c4ccc(Cl)cc4)cc23)c1F ): > 30 µM (inactive)

Entry under test: CO[C@H]1C[C@@H]2CC[C@@H](C)[C@@](O)(O2)C(=O)C(=O)N2CCCC[C@H]2C(=O)O[C@H]([C@H](C)C[C@@H]2CC[C@@H](OCCO)[C@H](OC)C2)CC(=O)[C@H](C)/C=C(\C)[C@@H](O)[C@@H](OC)C(=O)[C@H](C)C[C@H](C)/C=C/C=C/C=C/1C . Its Kd was > 30 µM (inactive)

Measured Kd of CC[C@@H]1C(=O)N(C)c2cnc(Nc3ccc(C(=O)N[C@H]4CC[C@H](N5CCN(CC6CC6)CC5)CC4)cc3OC)nc2N1C(C)C : > 30 µM (inactive)

Record COC(=O)N[C@@H](C)CNc1nccc(-c2cn(C(C)C)nc2-c2cc(Cl)cc(NS(C)(=O)=O)c2F)n1 , field Kd: > 30 µM (inactive)

Documented Kd of Cc1cc(-c2cc(O)ccc2Cl)cc2nnc(Nc3ccc(OCCN4CCCC4)cc3)nc12 : > 30 µM (inactive)

Kd reported for this compound COc1cc(OC)c(/C=C/S(=O)(=O)Cc2ccc(OC)c(NCC(=O)O)c2)c(OC)c1 : > 30 µM (inactive)

The compound listed as Cc1cn(-c2cc(NC(=O)c3ccc(C)c(Nc4nccc(-c5cccnc5)n4)c3)cc(C(F)(F)F)c2)cn1 has a reported Kd of > 30 µM (inactive)

Lab note: CCS(=O)(=O)N1CC(CC#N)(n2cc(-c3ncnc4[nH]ccc34)cn2)C1 gave Kd of > 30 µM (inactive)

Per the record, CN1N=C(N)c2cn([C@@H]3O[C@H](COP(=O)(O)O)[C@@H](O)[C@H]3O)c3ncnc1c23 [TRICIRIBINE PHOSPHATE] has Kd of > 30 µM (inactive)

Per the record, Cc1cc([C@@H](C)Nc2ccccc2C(=O)O)c2nc(N3CCOCC3)cc(=O)n2c1 has Kd of > 30 µM (inactive)

Kd reported for this compound COc1cc2nccc(Oc3ccc(NC(=O)NC4CC4)c(Cl)c3)c2cc1C(N)=O : > 30 µM (inactive)

Looking up O=C(O)[C@]1(Cc2cccc(Nc3nccs3)n2)CC[C@@H](Oc2cccc(Cl)c2F)CC1 , I see its Kd listed as > 30 µM (inactive)

Record CCc1cnn2c(NCc3ccc[n+]([O-])c3)cc(N3CCCC[C@H]3CCO)nc12 , field Kd: > 30 µM (inactive)

So for O=C(Nc1cccc(Cl)c1)Nc1ncc(CCNc2ncnc3ccsc23)s1 , the logged Kd turned out to be > 30 µM (inactive)
